Biological target: CHIKV-IbH35 virus (West African genotype), envelope glycoproteins E2-E1 (Chikungunya virus (strain IbH35))
Examples of binders with documented EC90 of neutralisation of CHIKV-IbH35 (FRNT on Vero cells) follow.
Express your answer in µg/mL, writing the number without its unit.

1. CHK-152 (mouse monoclonal antibody) (antibody, V domains shown) VH: QVQLQQPGAALVKPGASAMMSCKASGYTFTSYWITWVKQRPGQGLEWIGDIYPGTGRTIYKEKFKTKATLTVDTSSSTAFMQLNSLTSEDSAVYYCARGYGSPYYALDYWGQGTSVTVSS VL: DIVLTQSPASLAVSQGQRATISCKASQSVDYDGDSYVNWYQQKPGQSPKLLIYDASNLESGIPARFSGSGSGTDFTLNIHPVEEEDVATYYCQESNEDPRTFGGGTKLEIK
0.006
2. CHK-166 (mouse monoclonal antibody) (antibody, V domains shown) VH: EVRLVESGGGLEQPGGSLKLSCAASGFTFSDYFMYWVRQTPEKRLEWVAYISNGGISTFYSDAVKGRFTISRDNARNTLYLQMSRLKSEDTAIYYCVRQVYGQGYFDYWGQGTTLAVSS VL: QIVLIQSPAIMSASLGERVTMTCTASSSVSSSYLHWYQQKPGSSPKLWIYSSFSLASGVPARFSGSGSGTSYSLTISTMEAEDAATYYCHQYLRSPWTFGGGSKLEIK
2.58
3. CHK-263 (mouse monoclonal antibody) (antibody, V domains shown) VH: QVQLQQSGAELVKPGASVKISCKASGYAFSSYWMNWVKQRPGKGLEWIGQIYPGDGDTNYNGKFKGKATLTADKSSSTAYMQLSSLTSEDSAVYFCARGGLTIDYWGQGTTLTVSS VL: DIVLTQSPATLSVTPGDSVSLSCRASQSISDNLHWYQQKSHESPGLLIKYASQSISGIPSRFSGSGSGTDFTLSINSVETEDFGMYFCQQSNSWPYTFGGGTKLEIK
0.051

# get_value(readout='EC90 of neutralisation of CHIKV-IbH35 (FRNT on Vero cells)', item= CHK-102 (mouse monoclonal antibody) (antibody, V domains shown) VH: QVQLQQSGAELVKPGASVKISCKTSGYAFSSFWMHWVKQRPGKGLEWIGQIYPGDGDTNYNGKFKDKATLTADKSSNTAYMQLTSLTSEDSAVYFCARNLLFDYWGQGTTLTVSS VL: EILMTQSPAILSVSPGERVSFSCRASQSIGSNIHWYQQRTNGSPRLLIKYASESISGIPSRFSGSGSGTDFTLSINSVESEDIADYYCQQNNIWPFTFGSGTKLEIK )
0.104
